# Tested Target: ER-β (Rattus norvegicus (Rat), UniProt Q62986)
# Procedure Text: Transient transactivation assay in HEK-293 cells, ER-β and ERE-LUC
Reported Property: EC50

# Compound, EC50
rows = [
    ("N#Cc1cn(-c2ccc(O)cc2)c(=O)c2c(O)cc(O)cc12 [14m]", "< 0.01 µM"),
]

Below: the item to evaluate.
Q: Which value of EC50 has been reported for O=c1c2c(O)cc(O)cc2c(Br)cn1-c1ccc(O)cc1 [12u] in the records?
A: < 0.01 µM

====

# Tested Target: ERβ ligand binding domain (Homo sapiens)
# Sequence (Q92731 whole entry, looked up, the tested form may be a part): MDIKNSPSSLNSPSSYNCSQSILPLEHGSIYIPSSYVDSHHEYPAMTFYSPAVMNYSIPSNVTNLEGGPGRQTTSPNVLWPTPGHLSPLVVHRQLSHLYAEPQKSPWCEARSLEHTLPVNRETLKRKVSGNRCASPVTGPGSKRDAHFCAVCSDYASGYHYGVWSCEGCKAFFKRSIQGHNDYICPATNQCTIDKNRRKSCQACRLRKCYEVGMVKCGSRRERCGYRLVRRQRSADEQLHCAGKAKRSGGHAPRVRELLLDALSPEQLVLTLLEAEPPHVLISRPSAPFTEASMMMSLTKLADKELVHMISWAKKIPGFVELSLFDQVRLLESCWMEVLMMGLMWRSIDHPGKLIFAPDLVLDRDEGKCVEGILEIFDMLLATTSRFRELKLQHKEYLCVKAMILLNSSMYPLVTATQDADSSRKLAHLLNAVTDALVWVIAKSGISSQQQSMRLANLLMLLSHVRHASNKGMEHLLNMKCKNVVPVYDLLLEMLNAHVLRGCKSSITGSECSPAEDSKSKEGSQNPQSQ
# Procedure Text: Competitive [3H]-estradiol binding assay, ER-β (Example 21)
# Run Parameters: read-out: Percent Inhibition of [3H]-Estradiol Binding to ER-β
// reported inhibition at 0.1 µM for each item listed
Reply with just the number (in %).

Example results:
# Molecule, Measured Result
rows = [
    ("O=c1c2ccc(O)cc2c(Cl)cn1-c1ccc(O)c(F)c1 [12g]", 29.4),
    ("O=c1c2c(O)cc(O)cc2ccn1-c1ccc(O)cc1 [12l]", 34.4),
    ("O=c1c2c(O)cc(O)cc2c(Cl)cn1-c1ccc(O)cc1 [12y]", 97.5),
    ("Oc1ccc(-n2cc(Br)c3cc(O)ccc3c2=S)cc1 [12r]", 75.5),
]

Q: Which value of inhibition at 0.1 µM has been reported for O=c1c2c(O)cc(O)c(Br)c2ccn1-c1ccc(O)cc1 [12m] in the records?
A: 0

Q: Which value of inhibition at 0.1 µM has been reported for O=c1c2ccc(O)cc2c(Br)cn1-c1ccc(O)cc1 [12b] in the records?
A: 53.6
